# Test system: Escherichia coli
# ASSAY_EXPLANATION: Antimicrobial activity against Escherichia coli BAS849
# Type: functional
Record form. Attribute: MIC. Fill in for each entry.

Parameter requested: MIC. Apply to each item below.
1. O=C(O)c1cccc(-c2noc(-c3ccccc3F)n2)c1 [ATALUREN]
2. NC[C@H]1O[C@H](O[C@H]2[C@H](O)[C@@H](O[C@H]3O[C@H](CO)[C@@H](O)[C@H](N)[C@H]3O)[C@H](N)C[C@@H]2N)[C@H](O)[C@@H](O)[C@@H]1O [KANAMYCIN]
3. NC[C@H]1O[C@H](O[C@H]2[C@H](O)[C@@H](O[C@H]3O[C@H](CO)[C@@H](O)[C@H](N)[C@H]3O)[C@H](N)C[C@@H]2N)[C@H](N)C[C@@H]1O [TOBRAMYCIN]
4. CC1(C)S[C@@H]2[C@H](NC(=O)[C@H](N)c3ccccc3)C(=O)N2[C@H]1C(=O)O [AMPICILLIN]

["> 250 µg/mL", "3.12 µg/mL", "1.95 µg/mL", "0.39 µg/mL"]

###

# ASSAY_EXPLANATION: Drug level in Sprague-Dawley male rat plasma at 300 mg/kg after 14 days
# Assay type: ADME, organism-based
# Set-up: dose 300 mg/kg
ATTRIBUTE_MEASURED: concentration at 336 h

# get_value(readout='concentration at 336 h', item= `O=C(O)c1cccc(-c2noc(-c3ccccc3F)n2)c1` ) 170 µg/mL
